Origin of values: PubChem BioAssay (NCI)

System: NCI/ADR-RES ovarian
experimentNotes: NCI tumour cell line growth inhibition, 48 h; in the data active = GI50 below about 0.43 µM; inactive = the rest
The reply should be one of these categories: true for active, false for inactive

Query :: What was the test verdict on `O=c1c2sc(=S)n(-c3ccc(F)cc3)c2ncn1Cc1ccc(F)cc1F` ?
Result :: false

Query :: Test call for this compound, please: CCN1CCN(C(c2ccc(C(F)(F)F)cc2)c2ccc3cccnc3c2O)CC1 (stereo not drawn)
Result :: false

Query :: Tell me the recorded outcome of this test for `CCN(CC)CCOc1ccc(-c2nc3cc(Cl)ccc3s2)cc1` .
Result :: false

Query :: Can you look up the reported call for `Cn1c2ccccc2c2c3c(c4c5cc(Br)ccc5n(C)c4c21)C(=O)N(O)C3=O` for me?
Result :: true

Query :: I'd appreciate the recorded outcome for CC(C)CCN1c2nc(Nc3cc(F)c(O)c(F)c3)ncc2N(C)C(=O)C1C (stereo not drawn) from this test.
Result :: false

Query :: # fetch the recorded call for `N#CC(=C1C=CC(=NO)C=C1)c1ccccc1` here
Result :: false

Query :: Would you mind telling me which call this test gave `CCCCCCNC(=O)c1cc(NCc2cc(O)ccc2O)ccc1O` ?
Result :: false

Query :: Hi, do you know how `CCn1c(-c2nonc2N)nc2c(C#CC(C)(C)O)nc(OC[C@H](N)c3ccccc3)cc21` came out in this test?
Result :: false
